Each record here notes measured MIC.
Test system: Candida albicans
run-description: Antifungal activity against Candida albicans ATCC 76615 incubated for 24 hrs by half broth dilution based checkerboard method
Type: functional
readout-label: MIC (µg/mL)

> print(dat)
                                   molecule               tgt  endpoint.result
1  O=C(/C=C/C(=O)Nc1nc2ccccc2s1)Nc1ccc2c(c1)NC(=O)C1(CCNC1=O)C2 (racemic)  Candida albicans                2
2  NC(=O)OC[C@H](O)[C@@H](O)[C@H](N)C(=O)N[C@H](C(=O)O)[C@H]1O[C@@H](n2cc(CO)c(=O)[nH]c2=O)[C@H](O)[C@@H]1O  Candida albicans               16
3  O=C(CN1CCC(C(=O)Nc2cccc3ccccc23)CC1)Nc1ccc2c(c1)NC(=O)C1(CCNC1=O)C2 (racemic)  Candida albicans               16
4  O=C(CN1CCC(C(=O)Nc2cccc(Br)c2)CC1)Nc1ccc2c(c1)NC(=O)C1(CCNC1=O)C2 (racemic)  Candida albicans               16
5  O=C(CN1CCC(C(=O)Nc2ccc(Br)cc2)CC1)Nc1ccc2c(c1)NC(=O)C1(CCNC1=O)C2 (racemic)  Candida albicans               16
